Data credit: the supplement of paper PMC6757056

B1: library; a variant is named by its letters at N, in order (parent)
chain: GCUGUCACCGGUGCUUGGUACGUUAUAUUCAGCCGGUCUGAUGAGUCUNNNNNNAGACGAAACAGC

# Variants of: B1
# assay explanation: normalized RNA/DNA level with ligand (relative to sTRSVctl = 100) (log10 (% of sTRSVctl)); HEK293T overexpressing SLC46A1; ligand concentration (+) RNA-Seq: 6 mM; higher = less ribozyme self-cleavage, higher mRNA level
# experimental setup: with (6R,S)-folinic acid; ligand present: yes
Please provide measured normalized RNA/DNA level with ligand (log10) for the entries that follow.
Form: value (number only, do not type unit).

Prompt: # lookup: normalized RNA/DNA level with ligand (log10) of UACAGC
Completion: 2.02

Prompt: Reported normalized RNA/DNA level with ligand (log10), variant AUCAUU : ____
Completion: 2.03

Prompt: # normalized RNA/DNA level with ligand (log10) lookup, item GUGUGC
Completion: 1.98

Prompt: Item GUUUAC has what recorded normalized RNA/DNA level with ligand (log10)?
Completion: 2.02

Prompt: Request the reported normalized RNA/DNA level with ligand (log10) associated with AGUCCG
Completion: 2

Prompt: Request the reported normalized RNA/DNA level with ligand (log10) associated with UCGAAG
Completion: 1.99

Prompt: Which normalized RNA/DNA level with ligand (log10) is reported for this variant? GCAUGG
Completion: 2.04

Prompt: I am curious: what normalized RNA/DNA level with ligand (log10) value has been reported for AAAUCA ?
Completion: 2.02
